test-description: Moisturizing effect: transepidermal water loss (Tewameter TM210)
Assay type: in vivo, human subjects
Set-up: key: −: No effect; +: Weak effect; ++: Moderate effect; +++: Strong effect; ++++: Very strong effect
measurement-parameters: individual compound of natural origin
readout-label: Moisturizing effect

smiles-structure	readout-label	measurement
CC1(C)[C@@H](O[C@H]2O[C@H](C(=O)O)[C@@H](O)[C@H](O)[C@H]2O[C@@H]2O[C@H](C(=O)O)[C@@H](O)[C@H](O)[C@H]2O)CC[C@]2(C)[C@H]3C(=O)C=C4[C@@H]5C[C@@](C)(C(=O)O)CC[C@]5(C)CC[C@@]4(C)[C@]3(C)CC[C@@H]12	Moisturizing effect	++
CCCCCCCC/C=C\CCCCCCCC(=O)O	Moisturizing effect	+
Oc1cc(O)cc(/C=C/c2ccccc2)c1	Moisturizing effect	−
